# Tested on: TK-10 renal
# test summary: NCI tumour cell line growth inhibition, 48 h
outcome measure: TGI

| compound | outcome measure | result |
| --- | --- | --- |
| CN1N=C(c2ccncc2)OC1c1ccc(Cl)cc1Cl (configuration not stated) | TGI | > 100 µM |
| O=C1C(C(Nc2ccccc2)c2ccccc2)=C([O-])c2ccccc21.O=C1C(C(Nc2ccccc2)c2ccccc2)=C([O-])c2ccccc21.[Co+2] (configuration not stated) | TGI | 86 µM |
| CCOC(=O)[C@@]12C(C)=CC(=O)O[C@]1(C)C[C@H]2C#N | TGI | > 100 µM |
| O=C(Cc1nc2cccnc2nc1/C=C(\O)c1ccccc1)c1ccccc1 | TGI | > 100 µM |
| O=S(=O)(N/N=C/c1c(Cl)cccc1Cl)c1ccccc1 | TGI | > 100 µM |
| CC(C)(C)OC(=O)CCC1NC(=O)[C@@H]2Cc3c([nH]c4ccccc34)C(C3CCCCC3)N2C1=O (some centres not stated) | TGI | > 100 µM |
| COc1ccccc1C1(c2c(OC(C)C)c(=O)c2=O)SCCCS1 | TGI | > 100 µM |

###

GI50 values for the molecules below.
# System: SW-620 colon
# test summary: NCI tumour cell line growth inhibition, 48 h

| molecule | GI50 |
| --- | --- |
| COc1ccc(OC)c(Nc2nc3ccccc3c3c2-c2ccc(OC)cc2C3=O)c1 | > 100 µM |
| NCCSCC(N)C(=O)O (stereo unspecified) | > 497 µM |
| CCCCCC/C=C\CCCCCCCCCc1cc(O)cc(OC)c1O | 0.371 µM |
| CCN(CC)CCCNc1ccc2ncn3c4ccc(O)cc4c(=O)c1c23 | 0.832 µM |
| c1cc2ccc3cc2cc1CNCCN1CCNCc2ccc4ccc(cc4c2)CNCCN(CCNC3)CCNCc2ccc3ccc(cc3c2)CNCC1 | 3.36 µM |
| N#Cc1ccccc1C#C/C=C\C#Cc1cccs1 | 7.78 µM |
| Cc1ccc2nc3ccccc3c(NCc3ccccc3)c2c1 | 1.76 µM |
| COc1ccc2nc(NC(=O)COc3cc(/C=C\c4cc(OC)c(OC)c(OC)c4)ccc3OC)sc2c1 | 5.1 µM |
| Cc1ccc(S(=O)(=O)Oc2ccccc2-c2ccccc2)cc1 | 1.03 µM |
| N#CCCN1C/C(=C/c2ccccc2)C(=O)/C(=C/c2ccccc2)C1 | 0.647 µM |
| O=C(Nc1ccc(-n2ccc3c(NC(=O)c4ccccc4)nccc32)cc1)c1cccc(C(F)(F)F)c1 | 0.381 µM |
| O=c1cc(N2CCOCC2)oc2c(-c3ccc4c(c3)OCCO4)csc12 | 0.978 µM |
| NCCOc1ncccc1/C=C1\C2C=CC=CC2C2C=CC(F)=CC12 (stereo unspecified) | 1.07 µM |
| O=C(O)[C@@H]1CCCN1Cc1cc2cc3c(cc2c2cc(OCc4ccccc4)ccc12)OCO3 | 14.1 µM |
| Nc1c(C(=O)Nc2ccccc2)sc2nc3c(cc12)C(O)CCC3 (stereo unspecified) | 0.371 µM |
| COc1ccc(NC(=O)c2sc3nc(C)c(C(=O)/C=C/c4ccccc4)cc3c2N)cc1 | 0.966 µM |

###

TGI values for the molecules below.
# Tested on: HCT-116 colon
# test summary: NCI tumour cell line growth inhibition, 48 h
outcome measure: TGI (µM)

| molecule | value operator | result number |
| --- | --- | --- |
| COc1ccc2[nH]c(C(=O)N3CCN(C(=O)OCc4ccc5c(Br)cc(Br)c(O)c5n4)CC3)cc2c1 | = | 0.393 |
| NCCSCC(N)C(=O)O (configuration not stated) | > | 497 |
| CCC(=O)Oc1cc(/C=C/C(=O)O[C@H]2C[C@H]3CN4CCc5c([nH]c6cc(OC)ccc56)[C@@H]4C[C@@H]3[C@@H](C(=O)OC)[C@@H]2OC)ccc1OC | = | 78.9 |
| COc1cccc(C2SCC(=O)N2c2ccc(-c3ccc(-n4c(-c5ccccc5)nc5ccccc5c4=O)cc3)cc2)c1OC (configuration not stated) | > | 100 |
| CCOC(=O)/C=C\[C@H]1OC(C)(C)O[C@H]1[C@H](O)[C@H]1COC(C)(C)O1 | = | 39 |
| Nc1ncc2ccc3c(ccn3C3CC(O)C(CO)O3)c2n1 (configuration not stated) | > | 100 |
| Nc1c(C(=O)Nc2ccccc2)sc2nc3c(cc12)C(O)CCC3 (configuration not stated) | > | 100 |
| COc1cc2c3c(n(CCCNCCCNCCCn4c5c(c6cc(OC)c(OC)cc6c4=O)C(=O)c4ccccc4-5)c(=O)c2cc1OC)-c1ccccc1C3=O | = | 17.6 |
| c1ccc(C2=NOC3COc4ccccc4OCC23)cc1 (configuration not stated) | > | 100 |
| COc1cc2c3c(n(CCCN(C)C)c(=O)c2cc1OC)-c1cc2c(cc1C3=O)OCO2 | = | 1.87 |
| Clc1ccc(Cl)c(N=Nc2cc3c4c(c2)CCCN4CCC3)c1 | > | 10 |
| O=C1C=CC2(C=C1)CCC(=O)O2 | = | 28 |
| COC(=O)c1ccc([C@H]2c3[nH]c4ccccc4c3C[C@H](C(=O)OC)N2C(=O)CCl)cc1 | = | 2.98 |
| Cc1cccc(N2C(=O)C3c4[nH]c5ccccc5c4C4CCC(C(C)(C)C)CC4C3C2=O)c1C (configuration not stated) | > | 100 |
| O=C(Nc1ccc(-n2ccc3c(NC(=O)c4ccccc4)nccc32)cc1)c1cccc(C(F)(F)F)c1 | = | 6.92 |
| C[n+]1cn(-c2ccc([N+](=O)[O-])cn2)c2ccccc21 | > | 100 |
| CSC1(C)CC2C(CC1N1CCOCC1)C2(C)C (configuration not stated) | > | 100 |
| C=CCCC(CCC=C)(C(=O)O)C(=O)O | > | 100 |
| Cn1ccnc1Cn1cc(-c2cccc(-c3cn[nH]c3)c2)cn1 | > | 100 |
| CC(C)=NN/C(=N\S(=O)(=O)c1cc2ccccc2s1)Nc1ccc(Cl)cc1 | > | 100 |
| C=C1C[C@H](O)[C@H]2C(C[Se]c3ccccc3)C(=O)O[C@@H]2[C@H]2[C@H](C)C(O)C[C@@H]12 (some centres not stated) | = | 56.4 |
| COC(O)C(=O)c1c2c(cc3c1CCC3)CCCC2 (configuration not stated) | = | 4.6 |
| COC(=O)c1ccccc1C1CN=NC12Cc1c(C)cccc1C2=O (configuration not stated) | > | 100 |
| C=C(C)C(=O)OC1C[C@H](COC(C)=O)C2CC=C(C)C2C2OC(=O)C(=C)[C@H]12 (some centres not stated) | = | 3.3 |
| CCOC(OC1=CCCC1)C(C)[Se]c1ccccc1 (configuration not stated) | = | 45.1 |
| O=c1c2c3c(sc2n2c(CCl)nnc2n1Cc1ccccc1)CCCC3 | = | 3.13 |
| Cc1ccc(S(=O)(=O)N2CCCN(S(=O)(=O)c3ccc(C)cc3)CC2)cc1 | > | 100 |
| CCCCCCC/C(=N\N=C(N)N)c1ccc(O)cc1 | = | 3.41 |
| O=P(Nc1ccccc1)(Oc1ccccc1)N1CCN(c2ccccc2)CC1 (configuration not stated) | = | 32.8 |
| O=c1c2sc3ccccc3c2nnn1-c1ccc(F)c(Cl)c1 | = | 20.9 |
| COc1ccc(C2C(Cl)C(=O)N2NC(=O)c2ccccc2O)cc1 (configuration not stated) | > | 100 |
| C=C1CC[C@@H]2C(C)(C)C(O)CCC2(C)C1COc1ccc2ccc(=O)oc2c1 (some centres not stated) | = | 28.8 |
| N#Cc1c(C#N)c(SSc2c(C#N)c(C#N)c(N)n2-c2ccc(F)cc2)n(-c2ccc(F)cc2)c1N | = | 3.38 |
| O=S(=O)(Cc1nc2ccccc2s1)c1nc2ccccc2s1 | = | 27 |
| COc1ccc(O)cc1C=O | > | 100 |
| CC1(C)CC2(S(=O)(=O)c3ccccc3)ON1CC2S(=O)(=O)c1ccccc1 (configuration not stated) | > | 100 |
| COc1nc(NC2OCC(O)C(O)C2O)c(NC2OCC(O)C(O)C2O)c(=O)n1C (configuration not stated) | > | 100 |
| CCN1C(Cl)=NS(=O)(=O)c2ccccc21 | = | 74 |
| O=S(=O)(/N=C(\NO)Nc1ccc(Cl)cc1)c1cc2ccccc2o1 | = | 24.8 |
| O=c1ccc2ccc(O)c3c4c(=O)ccc5ccc(O)c(c1c23)c54 | = | 2.83 |
| Cn1ccnc1C(=O)/C=C/c1ccc(C(=O)Nc2ccccc2F)cc1 | = | 2.35 |
| C=C1CC(c2ccc(O)c(OC)c2)Oc2c(OC)cccc21 (configuration not stated) | > | 100 |

The values you see were collected from PubChem BioAssay (NCI).
